Study system: JAK1 (Homo sapiens, UniProt P23458)
Construct: made in house; host or cells: SF9 insect cells (baculovirus)
Sequence (P23458 852-1154): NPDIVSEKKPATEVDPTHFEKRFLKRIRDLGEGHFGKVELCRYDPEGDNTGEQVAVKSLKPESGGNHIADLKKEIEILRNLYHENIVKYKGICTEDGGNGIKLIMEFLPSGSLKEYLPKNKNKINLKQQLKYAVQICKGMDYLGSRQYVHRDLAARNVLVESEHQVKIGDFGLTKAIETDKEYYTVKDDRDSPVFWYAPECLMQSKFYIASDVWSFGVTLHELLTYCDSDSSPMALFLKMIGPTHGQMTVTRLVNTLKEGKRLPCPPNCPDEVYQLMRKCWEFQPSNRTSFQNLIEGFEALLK
Protocol description: JAK1 inhibition (Table 4)
Format: biochemical
Setup conditions: read-out: JAK1 Ki
Could you please mark True for values of Ki below 20 nM and False for values at or above it?

CC(C)N1CCCC[C@H]1C(=O)N1CCC(n2cnc3cnc4[nH]ccc4c32)CC1 : False
C[C@@H](O)c1nc2cnc3[nH]ccc3c2n1[C@H]1CC[C@H](CC#N)CC1 : True
Cc1nc2cnc3[nH]ccc3c2n1C1CCN(CCF)CC1 : True
Cc1nc2cnc3[nH]ccc3c2n1C1(C)CCN(S(=O)(=O)c2cccnc2)CC1 : False
CC(O)c1nc2cnc3[nH]ccc3c2n1C1CCNCC1 (racemic) : True

Prompt: Strictly below 20 nM in Ki? `CCC(=O)N1CCC[C@@H](n2c([C@@H](C)O)nc3cnc4[nH]ccc4c32)C1`
Completion: False

Prompt: Strictly below 20 nM in Ki? CC(CC#N)N1CCC(n2c(C3CCOC3)nc3cnc4[nH]ccc4c32)CC1 (racemic)
Completion: True

Prompt: Strictly below 20 nM in Ki? `CCn1nccc1CN1CCC(n2c([C@@H](C)O)nc3cnc4[nH]ccc4c32)CC1`
Completion: True

Prompt: Strictly below 20 nM in Ki? `C[C@@H](O)c1nc2cnc3[nH]ccc3c2n1C1CCN(Cc2cnco2)CC1`
Completion: True

Prompt: Strictly below 20 nM in Ki? N#CCC(=O)N1CCCC(n2c(CC3CC3)nc3cnc4[nH]ccc4c32)C1 (stereo not drawn)
Completion: True

---

Study system: TYK2 (Homo sapiens, UniProt P29597)
Construct: made in house; host or cells: SF9 insect cells (baculovirus)
Sequence (P29597 873-1187): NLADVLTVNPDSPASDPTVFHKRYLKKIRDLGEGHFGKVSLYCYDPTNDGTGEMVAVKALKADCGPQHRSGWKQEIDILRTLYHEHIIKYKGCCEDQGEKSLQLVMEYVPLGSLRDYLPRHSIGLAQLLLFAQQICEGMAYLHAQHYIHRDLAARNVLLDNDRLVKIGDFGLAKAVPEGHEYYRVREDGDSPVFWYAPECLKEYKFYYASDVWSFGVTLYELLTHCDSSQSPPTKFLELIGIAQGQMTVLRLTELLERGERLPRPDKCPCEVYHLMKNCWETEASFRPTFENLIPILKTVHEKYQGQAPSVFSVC
Protocol description: TYK2 inhibition (Table 4)
Assay type: biochemical
Value kind: pKi
One number for each entry, as −log10 of the molar value.

Here is how some compounds turned out for pKi.
CC(C)NC(=O)Cc1nc2cnc3[nH]ccc3c2n1C1CCCOC1 (racemic) : 6.43
N#Cc1cccc(CN2CCC(n3cnc4cnc5[nH]ccc5c43)CC2)c1 : 7.45
Cc1nc2cnc3[nH]ccc3c2n1[C@@H]1CC[C@@H](NC(=O)OC(C)(C)C)C1 : 6.93
Cc1nc2cnc3[nH]ccc3c2n1C1CC2CCC1O2 (stereo not drawn) : 7.54

For each listed entry, give its pKi.
1. N#CCCN1CCC(n2c(CC3CC3)nc3cnc4[nH]ccc4c32)CC1
2. FC(F)(F)c1nc2cnc3[nH]ccc3c2n1C1CCN(Cc2ccccc2)CC1

Completion:
1. 6.66
2. 6.09

---

Study system: JAK1 (Homo sapiens, UniProt P23458)
Construct: made in house; host or cells: SF9 insect cells (baculovirus)
Protocol description: JAK1 inhibition (Table 4)
Format: biochemical
Setup conditions: read-out: JAK1 Ki
Value kind: pKi
Give bare numbers, as −log10 of the molar value.

CCC(COC)n1cnc2cnc3[nH]ccc3c21 (racemic) [Example 419] : 6.84
c1cc2c(ncc3ncn([C@@H]4CCCN(Cc5cocn5)C4)c32)[nH]1 [Example 8] : 7.89

# evaluate next
Prompt: // fetch pKi given entry COCCNc1nc2cnc3[nH]ccc3c2n1C1CCN(CCC#N)CC1 [Example 770]
Completion: 8.06

---

Consider the following molecules; for each one, report its Ki.
Study system: JAK1 (Homo sapiens, UniProt P23458)
Construct: made in house; host or cells: SF9 insect cells (baculovirus)
Protocol description: JAK1 inhibition (Table 4)
Type: biochemical
Setup conditions: read-out: JAK1 Ki
Give bare numbers, in nM.

Here is how some molecules turned out for Ki.
C[C@@H](O)c1nc2cnc3[nH]ccc3c2n1[C@@H]1CCCN(C(=O)CCn2ccnc2)C1 : 159
N#CCC(=O)NC1CCC(n2cnc3cnc4[nH]ccc4c32)C1 (racemic) : 1.36

# evaluate next
Prompt: // fetch Ki given entry `CS(=O)(=O)N1CCC(n2c(-c3cccnc3)nc3cnc4[nH]ccc4c32)CC1`
Completion: 379

---

Study system: JAK3 (Homo sapiens)
Construct: made in house; host or cells: SF9 insect cells (baculovirus)
Sequence (P52333 783-1124): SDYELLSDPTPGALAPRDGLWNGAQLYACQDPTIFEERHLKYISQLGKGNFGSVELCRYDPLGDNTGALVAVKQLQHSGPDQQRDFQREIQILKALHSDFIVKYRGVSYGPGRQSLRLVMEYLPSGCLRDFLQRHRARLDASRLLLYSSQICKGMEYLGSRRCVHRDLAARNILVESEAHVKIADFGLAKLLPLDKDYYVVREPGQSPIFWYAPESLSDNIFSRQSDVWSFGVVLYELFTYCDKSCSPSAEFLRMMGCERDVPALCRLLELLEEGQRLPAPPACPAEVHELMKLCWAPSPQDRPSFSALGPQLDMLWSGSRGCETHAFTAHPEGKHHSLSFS
Protocol description: JAK3 inhibition (Table 4)
Assay type: biochemical
Setup conditions: read-out: JAK3 Ki
Consider the following compounds; for each one, report its Ki.
One number for each entry, in nM.

C[C@@H](O)c1nc2cnc3[nH]ccc3c2n1[C@H]1CC[C@@H](NCC(F)F)C1 : 26.3

For each listed entry, give its Ki.
1. CC(=O)NCCOC(=O)N[C@H]1CC[C@H](n2cnc3cnc4[nH]ccc4c32)CC1
2. c1cc2c(ncc3nnn(C4CCNCC4)c32)[nH]1
3. CC(C)(C#N)C(=O)N1CC[C@@H](n2cnc3cnc4[nH]ccc4c32)C1
4. Cc1nc2cnc3[nH]ccc3c2n1[C@H]1CC[C@H](NC(=O)OCC(F)F)CC1

Completion:
1. 186
2. 1140
3. 3170
4. 11.2

For each listed entry, give its Ki.
1. C[C@H](O)c1nc2cnc3[nH]ccc3c2n1C1CCCOC1 (single isomer, unassigned) [Example 462]
2. N#CCCN1CCC(n2c(CNS(=O)(=O)C3CC3)nc3cnc4[nH]ccc4c32)CC1
3. O=S(=O)(c1ccccc1)N1CCC[C@@H](n2cnc3cnc4[nH]ccc4c32)C1
4. C[C@@H](O)c1nc2cnc3[nH]ccc3c2n1[C@H]1CC[C@H](OC(=O)N(C)C)CC1

Completion:
[1160, 76.3, 67.1, 701]

For each listed entry, give its Ki.
1. C[C@@H](O)c1nc2cnc3[nH]ccc3c2n1C1CCCCC1 [Example 672]
2. CC(O)c1nc2cnc3[nH]ccc3c2n1C1CC2CCC1O2 (single isomer, unassigned) [Example 847]

Completion:
[17.2, 381]

For each listed entry, give its Ki.
1. C[C@@H](O)c1nc2cnc3[nH]ccc3c2n1[C@@H]1CCCN(C(=O)CC#N)C1
2. OCCN1CCC(n2cnc3cnc4[nH]ccc4c32)CC1

Completion:
1. 55.4
2. 288

For each listed entry, give its Ki.
1. N#CCCN1CCC(n2c(COCC3CCCC3)nc3cnc4[nH]ccc4c32)CC1
2. CC(C)CNC(=O)Cc1nc2cnc3[nH]ccc3c2n1C1CCCOC1 (racemic)
3. C[C@@H](O)c1nc2cnc3[nH]ccc3c2n1[C@@H]1CCCO1
4. Cc1nc2cnc3[nH]ccc3c2n1[C@H]1CC[C@H](CO)CC1
5. Cc1cc(CN2CCC(n3c([C@@H](C)O)nc4cnc5[nH]ccc5c43)CC2)no1
6. O=C(NCc1nc2cnc3[nH]ccc3c2n1C1CCCCC1)C1CCC1
7. O=C(Cc1nc2cnc3[nH]ccc3c2n1C1CCCOC1)NC1CCOCC1 (racemic)

Completion:
1. 90.4
2. 196
3. 172
4. 12.1
5. 6.73
6. 54.1
7. 100

For each listed entry, give its Ki.
1. c1cc2c(ncc3nc(C4CCCN4)n(C4CCCOC4)c32)[nH]1 (single isomer, unassigned) [Example 665]
2. CS(=O)(=O)c1cccc(CN2CCC(n3cnc4cnc5[nH]ccc5c43)CC2)c1
3. CC1CN(S(C)(=O)=O)CCC1n1cnc2cnc3[nH]ccc3c21 (racemic) [Example 345]
4. C[C@@H](O)c1nc2cnc3[nH]ccc3c2n1C1CCN(C2COC2)CC1

Completion:
1: 1780; 2: 82.1; 3: 354; 4: 516

---

Study system: JAK2 (Homo sapiens, UniProt O60674)
Construct: made in house; host or cells: SF9 insect cells (baculovirus)
Sequence (O60674 812-1132): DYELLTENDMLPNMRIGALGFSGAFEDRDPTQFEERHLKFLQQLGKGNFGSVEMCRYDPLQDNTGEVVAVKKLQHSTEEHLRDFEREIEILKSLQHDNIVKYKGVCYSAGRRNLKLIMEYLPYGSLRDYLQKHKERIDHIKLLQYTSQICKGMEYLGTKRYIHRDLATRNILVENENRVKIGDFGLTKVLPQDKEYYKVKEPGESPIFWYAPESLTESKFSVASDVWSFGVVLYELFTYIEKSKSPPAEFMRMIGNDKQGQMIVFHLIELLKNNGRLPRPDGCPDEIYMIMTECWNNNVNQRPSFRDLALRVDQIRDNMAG
Protocol description: JAK2 inhibition (Table 4)
Assay type: biochemical
Setup conditions: read-out: JAK2 Ki
Value kind: Ki (nM)
Numbers only, in nM.

Here is how some molecules turned out for Ki.
CS(=O)(=O)c1ccc(S(=O)(=O)N2CCC(n3cnc4cnc5[nH]ccc5c43)CC2)cc1 : 10.2
CC(=O)NCCc1nc2cnc3[nH]ccc3c2n1[C@@H]1CCCOC1 : 566
FC(F)(F)CNC1CCC(n2cnc3cnc4[nH]ccc4c32)C1 (racemic) : 13.3
OC1CCN(Cc2nc3cnc4[nH]ccc4c3n2C2CCCCC2)CC1 : 579
O=C(Cc1nc2cnc3[nH]ccc3c2n1C1CCCOC1)N1CCC(CO)CC1 (racemic) : 295

For each listed entry, give its Ki.
1. N#Cc1cccc(CN2CC[C@@H](n3cnc4cnc5[nH]ccc5c43)C2)c1
2. FC(F)(F)CNC1CCC(n2nnc3cnc4[nH]ccc4c32)C1 (racemic)
3. C[C@@H](O)c1nc2cnc3[nH]ccc3c2n1[C@H]1CC[C@H](N2CC[C@@H](C#N)C2)CC1
4. O=S(=O)(c1ccccc1)N1CC[C@@H](n2cnc3cnc4[nH]ccc4c32)C1
5. COC(=O)NC1CCC(n2nnc3cnc4[nH]ccc4c32)C1 (racemic)
6. CCS(=O)(=O)NCc1nc2cnc3[nH]ccc3c2n1C1CCN(CCC#N)CC1

Completion:
1: 12.5; 2: 20.8; 3: 35.5; 4: 17.9; 5: 23.2; 6: 25.4
